The measured values listed here are drawn from PubChem BioAssay (NCI).

In this section, each of the compounds is paired with its reported GI50.
- System: A498 renal
- protocolDescription: NCI tumour cell line growth inhibition, 48 h
metric: GI50

[[record]]
compound = "CC(=O)NCc1cccc(C#Cc2cncnc2Nc2ccc(OCc3cccc(F)c3)c(Cl)c2)c1"
testedtarget = "A498 renal"
valuemeasured = "3520 nM"

[[record]]
compound = "c1ccc(-c2nc(N3CCNCC3)c3oc(-c4ccccc4)nc3n2)cc1"
testedtarget = "A498 renal"
valuemeasured = "1620 nM"

[[record]]
compound = "COc1cc2c(cc1OCCCCN1CCN(C(=S)SCCC(C#N)(c3ccccc3)c3ccccc3)CC1)N=C[C@@H]1CCCN1C2=O"
testedtarget = "A498 renal"
valuemeasured = "1190 nM"

[[record]]
compound = "CC1(C)CC(=O)C2=C(C1)OC(N)=C(c1nc(-c3ccccc3)cs1)C2c1ccc(Br)cc1 (centres undefined)"
testedtarget = "A498 renal"
valuemeasured = "66.6 µg/mL"

[[record]]
compound = "N#CCN1CCn2c1nsc2=S"
testedtarget = "A498 renal"
valuemeasured = "> 100000 nM"

[[record]]
compound = "Oc1cccc2ccc(N/N=C/c3cc(CN4CCOCC4)c(O)c4ncccc34)nc12"
testedtarget = "A498 renal"
valuemeasured = "376 nM"

[[record]]
compound = "C/C(=N/N=C(\\[O-])c1ccncc1)C(F)(F)F.C/C(=N\\N=C(/[O-])c1ccncc1)C(F)(F)F.[Ni+2]"
testedtarget = "A498 renal"
valuemeasured = "> 1000 nM"

[[record]]
compound = "COc1cc(/C=C/C(=O)c2cccc(-n3cc(-c4ccc(Cl)cc4)[nH]c3=O)c2)cc(OC)c1OC"
testedtarget = "A498 renal"
valuemeasured = "30200 nM"

[[record]]
compound = "N#CCCN1C/C(=C/c2ccc(Cl)cc2)C(=O)/C(=C/c2ccc(Cl)cc2)C1"
testedtarget = "A498 renal"
valuemeasured = "1590 nM"

[[record]]
compound = "CCc1cccc(C)c1NC(=O)c1sc2nc3c(cc2c1N)C(=O)CCC3"
testedtarget = "A498 renal"
valuemeasured = "200 nM"

[[record]]
compound = "C=C1CCC2[C@@H](CCC3[C@]2(C)CCC[C@]3(C)C(=O)OC)C1CC=O (some centres undefined)"
testedtarget = "A498 renal"
valuemeasured = "17200 nM"

[[record]]
compound = "Nc1nc(Nc2ccccc2SSc2ccccc2Nc2nc(N)nc(C(Cl)(Cl)Cl)n2)nc(C(Cl)(Cl)Cl)n1"
testedtarget = "A498 renal"
valuemeasured = "24300 nM"

[[record]]
compound = "COC1C(O)C(CO)OC(OC2C(O)COC(OC3C(C)OC(OC4C(O[C@H]5CC[C@@]6(C)C(CC=C7[C@H]6CCC68C(=O)O[C@@](C)(CCCC(C)C)[C@H]6[C@@H](OC(C)=O)C[C@@]78C)C5(C)C)OCC(OS(=O)(=O)O)C4O)C(OC4OCC(O)C(O)C4O)C3O)C2O)C1O (some centres undefined)"
testedtarget = "A498 renal"
valuemeasured = "324 nM"

[[record]]
compound = "COc1ncnc(NS(=O)(=O)c2ccc(N=C3C(=O)N(CN4CCN(c5c(F)cc6c(=O)c(C(=O)O)cn(C7CC7)c6c5OC)CC4C)c4ccc(Br)cc43)cc2)c1OC (centres undefined)"
testedtarget = "A498 renal"
valuemeasured = "11300 nM"

